Test system: HOP-92 NSCLC
PROCEDURE_TEXT: NCI tumour cell line growth inhibition, 48 h
# label = True if TGI >= 30 µM else False

[Q] Please tell me: is the compound Cc1c(N2C(=O)/C(=C\c3ccc(N(C)C)cc3)N=C2c2ccccc2)c(=O)n(-c2ccccc2)n1C at or over 30 µM in terms of TGI?
[A] True

[Q] Please tell me: is the compound CCOC(=O)c1c(N2CCOCC2)[nH]c(=O)c(C(c2ccc(Cl)c([N+](=O)[O-])c2)c2c(O)c(C(=O)OCC)c(N3CCOCC3)[nH]c2=O)c1O at or over 30 µM in terms of TGI?
[A] True

[Q] Please tell me: is the compound COc1cc(NCc2ccc3n2-c2ccccc2OC3)cc(OC)c1OC at or over 30 µM in terms of TGI?
[A] True

[Q] Please tell me: is the compound CC(C)[O-].CC(C)[O-].[O-]c1cccc2cccnc12.[O-]c1cccc2cccnc12.[Ti+4] at or over 30 µM in terms of TGI?
[A] True

[Q] Please tell me: is the compound CCOC(=O)c1c(C(F)(F)F)oc2c1ccc1nc3nonc3nc12 at or over 30 µM in terms of TGI?
[A] False

[Q] Please tell me: is the compound CCc1ccccc1-n1c(N)c(C#N)c(-c2ccc(OC)c(OC)c2)c(C#N)c1=O at or over 30 µM in terms of TGI?
[A] False

[Q] Please tell me: is the compound CCCOCN1COCN=C1NC#N at or over 30 µM in terms of TGI?
[A] True

[Q] Please tell me: is the compound CC(C)(C)c1cc(C(C)(C)C)c2sc(=S)oc2c1O at or over 30 µM in terms of TGI?
[A] False

[Q] Please tell me: is the compound FC(F)(F)C1=NC(=NNc2nnc(-c3ccccc3)c(-c3ccccc3)n2)N=C(C(F)(F)F)C1 at or over 30 µM in terms of TGI?
[A] True

[Q] Please tell me: is the compound NC(N)=N/N=C/c1ccc(O)c(C(=O)O)c1 at or over 30 µM in terms of TGI?
[A] True

[Q] Please tell me: is the compound CCCCCc1c(C)[nH]c(/C=c2\[nH]/c(=C3/C=c4ccccc4=N3)cc2OC)c1C at or over 30 µM in terms of TGI?
[A] False

[Q] Please tell me: is the compound CP(C)C.[Ag][I] at or over 30 µM in terms of TGI?
[A] True

[Q] Please tell me: is the compound O=C(Nc1ccc(S(=O)(=O)NC2CCCCCC2)cc1)C(c1ccccc1)S(=O)(=O)c1ccc(F)cc1 (centres undefined) at or over 30 µM in terms of TGI?
[A] False

[Q] Please tell me: is the compound C[N+](C)(Cc1ccc(NC(=O)CCCC(=O)ON2C(=O)CCC2=O)cc1)c1ccccc1 at or over 30 µM in terms of TGI?
[A] False

[Q] Please tell me: is the compound C=CCC1=CC2(OC)C(=O)C(OC)(OC)C1C1C(OC)(OC)C(=O)C(OC)=CC12CC=C (centres undefined) at or over 30 µM in terms of TGI?
[A] True

[Q] Please tell me: is the compound CS[C@@]1(C(=O)Nc2ccc3[nH]nc(-c4ccc(OC(C)C)nc4)c3c2)CCN(CC(=O)N2CC=C(c3ccc(-c4ncn(C)n4)cc3)CC2)C1 at or over 30 µM in terms of TGI?
[A] False

[Q] Please tell me: is the compound COc1ccc(-n2sc(=O)n(Cc3ccc(COC(=O)C(C)c4ccc(CC(C)C)cc4)cc3)c2=O)cc1 (centres undefined) at or over 30 µM in terms of TGI?
[A] False

[Q] Please tell me: is the compound O=C(/C=C/c1ccc(Cl)c(Cl)c1)C1CCC(Cl)CC1 (centres undefined) at or over 30 µM in terms of TGI?
[A] True
